# testedSystem: mutant Patched G509VD513Y (hPtcVXXXY) expressed in yeasts (Homo sapiens, UniProt Q13635, D513Y/G509V)
# Construct: MAP; expressed in transfected cells; host or cells: Saccharomyces cerevisiae K699
# Sequence (Q13635 1-1447 G509V/D513Y): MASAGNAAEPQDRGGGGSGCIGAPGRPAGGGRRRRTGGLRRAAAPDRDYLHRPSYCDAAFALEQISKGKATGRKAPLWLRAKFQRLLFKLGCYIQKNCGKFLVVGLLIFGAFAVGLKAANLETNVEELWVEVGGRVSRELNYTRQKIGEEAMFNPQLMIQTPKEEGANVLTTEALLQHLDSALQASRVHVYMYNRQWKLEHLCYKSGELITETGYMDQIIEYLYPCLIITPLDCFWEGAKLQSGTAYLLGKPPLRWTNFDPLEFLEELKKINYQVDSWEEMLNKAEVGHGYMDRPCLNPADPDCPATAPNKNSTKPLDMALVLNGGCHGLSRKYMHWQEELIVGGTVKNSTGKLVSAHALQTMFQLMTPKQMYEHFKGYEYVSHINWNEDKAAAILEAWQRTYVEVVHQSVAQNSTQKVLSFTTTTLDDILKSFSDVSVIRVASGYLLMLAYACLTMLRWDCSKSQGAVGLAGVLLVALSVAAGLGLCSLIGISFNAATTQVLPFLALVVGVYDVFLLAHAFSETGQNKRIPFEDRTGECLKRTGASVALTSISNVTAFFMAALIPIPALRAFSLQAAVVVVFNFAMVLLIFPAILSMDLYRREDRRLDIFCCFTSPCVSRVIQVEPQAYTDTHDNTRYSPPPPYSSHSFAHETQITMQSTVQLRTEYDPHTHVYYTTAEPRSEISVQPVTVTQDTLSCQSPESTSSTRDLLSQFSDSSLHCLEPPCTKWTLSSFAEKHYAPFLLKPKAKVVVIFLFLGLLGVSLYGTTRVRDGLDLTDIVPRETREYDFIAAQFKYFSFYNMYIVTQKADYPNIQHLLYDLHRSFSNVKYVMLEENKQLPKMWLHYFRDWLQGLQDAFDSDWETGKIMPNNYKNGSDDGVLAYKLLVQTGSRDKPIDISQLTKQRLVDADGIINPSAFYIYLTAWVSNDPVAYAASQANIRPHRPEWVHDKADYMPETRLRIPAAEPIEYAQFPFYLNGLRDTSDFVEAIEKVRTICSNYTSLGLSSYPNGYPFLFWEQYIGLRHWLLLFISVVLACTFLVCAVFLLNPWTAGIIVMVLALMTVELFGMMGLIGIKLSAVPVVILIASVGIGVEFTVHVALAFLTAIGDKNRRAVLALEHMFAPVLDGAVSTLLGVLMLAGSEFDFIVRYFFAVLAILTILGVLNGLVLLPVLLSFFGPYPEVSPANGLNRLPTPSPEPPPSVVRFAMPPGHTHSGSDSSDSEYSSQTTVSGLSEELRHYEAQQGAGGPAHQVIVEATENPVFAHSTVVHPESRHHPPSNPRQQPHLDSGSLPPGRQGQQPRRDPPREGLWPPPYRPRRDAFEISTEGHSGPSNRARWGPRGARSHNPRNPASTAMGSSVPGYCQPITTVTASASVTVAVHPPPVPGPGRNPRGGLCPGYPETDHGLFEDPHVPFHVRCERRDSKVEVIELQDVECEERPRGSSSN
# experimentalDetails: Doxorubicin efflux from yeasts (intracellular dxr fluorescence)
# Format: cell-based
# testSettings: hPtc-YXXXG-yeasts (mutant Patched), 10 μM paniceins, 10 min, 5 mM 2-deoxy-D-glucose
List of Efflux (%) of dxr values.
readoutLabel: Efflux (%) of dxr

In [3]: df
Out[3]:
                                   compound       readoutlabel  measuredvalue
0  Cc1cc(O)c(C=O)c(C)c1CCC1(C)C=Cc2cc(O)ccc2O1 (stereo not shown)  Efflux (%) of dxr             38
1  C/C(=C\Cc1cc(O)ccc1O)CCc1c(C)c(O)c(O)c(C=O)c1C [P2, Panicein C]  Efflux (%) of dxr             39
2  C/C(=C\Cc1cc(O)ccc1O)CCc1c(C)cc(O)c(C=O)c1C  Efflux (%) of dxr             32
3  COc1cc(C)c(CC/C(C)=C/Cc2cc(O)ccc2O)c(C)c1C [P5, Panicein A hydroquinone]  Efflux (%) of dxr             42
